# Tested on: Candida albicans
# assay.info: Antifungal activity against fluconazole-resistant Candida albicans 632 assessed as inhibition of microbial growth by NCCLS protocol based method
# Assay type: functional
metric.name: MIC50 (µg/mL)
Field: numeric (µg/mL). Do not append units.

Some molecules with known MIC50 results, for comparison:
{"columns": ["molecule", "unit.string", "MIC50"],
 "data": [
  ["CC(NC(=O)c1cccc2ccccc12)C(=O)NC(Cn1ccnc1)C(=O)c1ccccc1 (stereo not given)", "µg/mL", 8],
  ["OC(Cn1cncn1)(Cn1cncn1)c1ccc(F)cc1F", "µg/mL", 8]
]}

Next up:
Query :: What value of MIC50 has been recorded for this entry: O=C(NC(Cn1ccnc1)C(=O)NCc1ccncc1)c1ccc2ccccc2c1 (stereo not given)
Result :: 8

###

Each entry below lists one item and its recorded MIC50 value.
# Test system: Candida albicans
# assay.info: Antifungal activity against Candida albicans ATCC 10231 assessed as inhibition of microbial growth by NCCLS protocol based method
# Assay type: functional
Just the number in µg/mL, nothing appended.

{"columns": ["molecule", "metric.name", "value"],
 "data": [
  ["O=C(NC(Cn1ccnc1)C(=O)NCc1ccncc1)c1ccc2ccccc2c1 (stereo not drawn)", "MIC50", 0.25],
  ["CN(CC(=O)Nc1cccnc1)C(=O)c1cccc2ccccc12", "MIC50", 0.25],
  ["CN(CC(=O)NCc1ccncc1)C(=O)c1cccc2ccccc12", "MIC50", 1]
]}

Query :: Which MIC50 reading was recorded for the molecule O=C(NC(Cn1ccnc1)C(=O)NCc1ccncc1)c1cccc2ccccc12 (stereo not drawn) ?
Result :: 0.25

###

# Test system: Candida albicans
# assay.info: Antifungal activity against fluconazole-resistant Candida albicans 17# assessed as inhibition of microbial growth by NCCLS protocol based method
# Type: functional
MIC50 listing for selected compounds.
Lab book: enter the figure in µg/mL, no units written.

Check out these entries, answers already filled in.
{"columns": ["compound", "MIC50 [µg/mL]"],
 "data": [
  ["O=C(NC(Cn1ccnc1)C(=O)NCc1ccncc1)c1ccc2ccccc2c1 (stereo not given)", 4],
  ["CC(NC(=O)c1cccc2ccccc12)C(=O)NC(Cn1ccnc1)C(=O)c1ccccc1 (stereo not given)", 2],
  ["OC(Cn1cncn1)(Cn1cncn1)c1ccc(F)cc1F [FLUCONAZOLE]", 8]
]}

Query :: I am curious: what MIC50 value has been reported for CN(CC(=O)Nc1cccnc1)C(=O)c1ccc2ccccc2c1 ?
Result :: 8

###

# Tested on: Candida albicans
# assay.info: Antifungal activity against Candida albicans ATCC 10231 assessed as inhibition of microbial growth by NCCLS protocol based method
# Assay type: functional
metric.name: MIC50 (µg/mL)
Hi! Could you send only the number? It should be in µg/mL, unit omitted.

{"columns": ["compound", "value"],
 "data": [
  ["CN(C/C=C/c1ccccc1)Cc1cccc2ccccc12 [NAFTIFINE]", 0.5],
  ["O=C(NC(Cn1ccnc1)C(=O)NC1CCCCC1)c1ccc2ccccc2c1 (centres undefined)", 0.5],
  ["CN(CC(=O)NCc1cccnc1)C(=O)c1ccc2ccccc2c1", 0.5],
  ["CN(CC(=O)NC(Cn1ccnc1)C(=O)c1ccccc1)C(=O)c1cccc2ccccc12 (centres undefined)", 0.5]
]}

Query :: What measured MIC50 goes with O=C(NC(Cn1ccnc1)C(=O)NCc1ccccc1)c1cccc2ccccc12 (centres undefined) ?
Result :: 0.5

Query :: What value of measured MIC50 is listed for CN(CC(=O)NCc1ccncc1)C(=O)c1ccc2ccccc2c1 ?
Result :: 0.25

Query :: Would you mind telling me what MIC50 value was observed for O=C(CNC(=O)c1cccc2ccccc12)NC(Cn1ccnc1)C(=O)c1ccccc1 (centres undefined) ?
Result :: 0.25

Query :: So what's the measured MIC50 for this one? OC(Cn1cncn1)(Cn1cncn1)c1ccc(F)cc1F [FLUCONAZOLE]
Result :: 0.25

Query :: Which value of MIC50 has been reported for CC(C)C(NC(=O)c1ccc2ccccc2c1)C(=O)NC(Cn1ccnc1)C(=O)c1ccccc1 (centres undefined) in the records?
Result :: 0.5

Query :: Need MIC50 of O=C(NC(Cn1ccnc1)C(=O)NC1CCCC1)c1cccc2ccccc12 (centres undefined) , thanks.
Result :: 0.5

Query :: Which measured MIC50 value corresponds to O=C(NC(Cn1ccnc1)C(=O)NC1CCCC1)c1ccc2ccccc2c1 (centres undefined) ?
Result :: 0.25

Query :: For the compound CN(CC(=O)Nc1cccnc1)C(=O)c1ccc2ccccc2c1 , what MIC50 is on record?
Result :: 0.125

###

# Test system: Candida albicans
# assay.info: Antifungal activity against Candida albicans ATCC 10231 assessed as inhibition of microbial growth by NCCLS protocol based method
# Type: functional
Recorded MIC50 for the following molecules
Unit µg/mL implied. Number only.

Study these solved cases before continuing.
{"columns": ["molecule", "MIC50 [µg/mL]"],
 "data": [
  ["O=C(NC(Cn1ccnc1)C(=O)NC1CCCCC1)c1cccc2ccccc12 (configuration not stated)", 0.5],
  ["CN(CC(=O)NC(Cn1ccnc1)C(=O)c1ccccc1)C(=O)c1ccc2ccccc2c1 (configuration not stated)", 0.125]
]}

Here is another molecule to look at.
Query :: Return MIC50 measured with Candida albicans given this molecule: CN(CC(=O)Nc1ccncc1)C(=O)c1ccc2ccccc2c1
Result :: 0.25

###

# System: Candida albicans
# assay.info: Antifungal activity against Candida albicans ATCC 10231 assessed as inhibition of microbial growth by NCCLS protocol based method
# Format: functional
The molecules listed here are annotated with their MIC50.
Don't forget the unit after the number, please.

# example entries with known answers
{"columns": ["molecule", "value"],
 "data": [
  ["O=C(CNC(=O)c1ccc2ccccc2c1)NC(Cn1ccnc1)C(=O)c1ccccc1 (centres undefined)", "0.25 µg/mL"],
  ["CN(CC(=O)NCc1cccnc1)C(=O)c1cccc2ccccc12", "0.5 µg/mL"],
  ["CN(CC(=O)Nc1ccncc1)C(=O)c1cccc2ccccc12", "0.5 µg/mL"],
  ["CC(C)C(NC(=O)c1cccc2ccccc12)C(=O)NC(Cn1ccnc1)C(=O)c1ccccc1 (centres undefined)", "0.25 µg/mL"],
  ["Cc1ccc(NC(=O)C(Cn2ccnc2)NC(=O)c2ccc3ccccc3c2)cc1 (centres undefined)", "0.125 µg/mL"]
]}

Query :: Query (molecule): CC(NC(=O)c1ccc2ccccc2c1)C(=O)NC(Cn1ccnc1)C(=O)c1ccccc1 (centres undefined) ; field requested: MIC50
Result :: 0.25 µg/mL

Query :: Which MIC50 value belongs to O=C(NC(Cn1ccnc1)C(=O)NCc1ccccc1)c1ccc2ccccc2c1 (centres undefined) ?
Result :: 0.5 µg/mL

Query :: Report MIC50 for Cc1ccc(NC(=O)C(Cn2ccnc2)NC(=O)c2cccc3ccccc23)cc1 (centres undefined) please.
Result :: 0.25 µg/mL

Query :: Consider the molecule shown here: CC(NC(=O)c1cccc2ccccc12)C(=O)NC(Cn1ccnc1)C(=O)c1ccccc1 (centres undefined) What is its recorded MIC50?
Result :: 0.125 µg/mL

The reported measurements were obtained from ChEMBL document CHEMBL4732095.
